Consider the following molecules; for each one, report its inhibition.
Molecular target: Creatine kinase M-type (Oryctolagus cuniculus) (UniProt P00563)
Sequence (P00563 whole entry): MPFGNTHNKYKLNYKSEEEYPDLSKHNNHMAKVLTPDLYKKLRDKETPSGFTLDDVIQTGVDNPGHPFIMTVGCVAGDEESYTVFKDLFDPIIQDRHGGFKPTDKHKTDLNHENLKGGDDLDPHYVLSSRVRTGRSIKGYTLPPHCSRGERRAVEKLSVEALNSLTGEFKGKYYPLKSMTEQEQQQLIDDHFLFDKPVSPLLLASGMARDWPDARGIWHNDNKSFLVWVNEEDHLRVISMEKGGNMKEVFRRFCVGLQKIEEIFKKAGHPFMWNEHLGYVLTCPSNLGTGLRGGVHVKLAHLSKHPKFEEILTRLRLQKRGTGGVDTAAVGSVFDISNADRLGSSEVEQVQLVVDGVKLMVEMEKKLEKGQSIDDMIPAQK
Experiment: Inhibition of rabbit muscle creatine kinase at 27.5 uM in presence of 400 uM MgATP
Number first, unit second.

Solved entries (count: 3):
INSERT INTO assay_data (test_smiles, target_under_test, result) VALUES
  ('O=C(NCc1ccc(-c2ccccc2)cc1)c1ccc(-c2ccc(C(=O)O)o2)cc1', 'Creatine kinase M-type (Oryctolagus cuniculus) (UniProt P00563)', '63%'),
  ('O=C(Nc1ccc(C(=O)c2ccccc2)cc1)c1ccc(-c2ccc(C(=O)O)o2)cc1', 'Creatine kinase M-type (Oryctolagus cuniculus) (UniProt P00563)', '35%'),
  ('O=C(NCc1ccccc1)c1ccc(-c2ccc(C(=O)O)o2)cc1', 'Creatine kinase M-type (Oryctolagus cuniculus) (UniProt P00563)', '20%');

Q: Please report the measured inhibition for O=C(c1ccccc1)c1ccc(-c2ccc(-c3ccc(C(=O)O)o3)cc2)cc1
A: 63%

----------
Molecular target: Creatine kinase M-type (Oryctolagus cuniculus, UniProt P00563)
Assay: Inhibition of rabbit muscle creatine kinase by pH-stat assay
QUANTITY_NAME: Ki (µM)
Numbers only, in µM.

Q: Jot down Ki (Creatine kinase M-type (Oryctolagus cuniculus, UniProt P00563)) of O=C(Nc1ccc(C(=O)c2ccccc2)cc1)c1ccc(-c2ccc(C(=O)O)o2)cc1 .
A: 25

----------
Target: UniProtKB P00563
Assay: Inhibition of rabbit muscle creatine kinase-MgATP complex by pH-stat assay
QUANTITY_NAME: Ki (µM)
Give bare numbers, in µM.

Q: Please report the measured Ki for O=C(Nc1ccc(C(=O)c2ccccc2)cc1)c1ccc(-c2ccc(C(=O)O)o2)cc1
A: 70

The measurements presented in this section are drawn from ChEMBL document CHEMBL1143011.
